Please respond with reported concentration at 4 h for every item in the list.
experiment: Drug level in APP51/16 transgenic male mouse blood at 100 umol/kg, po after 4 hrs; assay type: ADME, organism-based; conditions: whole blood, read-out: Drug uptake
Supply the numeric figure in nM, leaving out any unit text.

For the molecule COC[C@@H](Oc1cc(C[C@@H]2C[S@@+]([O-])C[C@H](NCc3cccc(C(C)(C)C)c3)[C@H]2O)cc(F)c1N)C(F)(F)F , report concentration at 4 h.
1000

For the molecule CC(C)(C)c1cccc(CN[C@H]2C[S@+]([O-])C[C@@H](Cc3cc(F)c(N)c(OCC(F)(F)F)c3)[C@@H]2O)c1 , report concentration at 4 h.
2600

----------
experiment: Lipophilicity, log P of the compound; format: physicochemical; conditions: octanol/water
Threshold 4. logP below it: fulfilled. logP at it or above: not fulfilled.

Item COc1cc(C[C@@H]2C[S@@+]([O-])C[C@H](NCc3cccc(C(C)(C)C)c3)[C@H]2O)cc(F)c1N : logP beneath 4, strictly?
fulfilled

Item COC[C@@H](Oc1cc(C[C@@H]2C[S@@+]([O-])C[C@H](NCc3cccc(OC(C)C)c3)[C@H]2O)cc(F)c1N)C(F)(F)F : logP beneath 4, strictly?
fulfilled

Item CC(C)(C)c1cccc(CN[C@H]2C[S@@+]([O-])C[C@@H](Cc3cc(F)c(N)c(OC(C(F)(F)F)C(F)(F)F)c3)[C@@H]2O)c1 : logP beneath 4, strictly?
not fulfilled

Item COC[C@@H](Oc1cc(C[C@@H]2C[S@@+]([O-])C[C@H](NCc3cc(C(C)(C)C)ccn3)[C@H]2O)cc(F)c1N)C(F)(F)F : logP beneath 4, strictly?
fulfilled

Item CC(C)(C)c1cccc(CN[C@H]2C[S@+]([O-])C[C@@H](Cc3cc(F)c(N)c(OC(C(F)(F)F)C(F)(F)F)c3)[C@@H]2O)c1 : logP beneath 4, strictly?
not fulfilled

Item CC(C)(C)c1cccc(CN[C@H]2C[S@+]([O-])C[C@@H](Cc3cc(F)c(N)c(OCC(F)(F)F)c3)[C@@H]2O)c1 : logP beneath 4, strictly?
not fulfilled

Item CC(C)(C)c1cccc(CN[C@H]2CS(=O)(=O)C[C@@H](Cc3cc(F)c(N)c(OC(C(F)(F)F)C(F)(F)F)c3)[C@@H]2O)c1 : logP beneath 4, strictly?
not fulfilled

Item COC[C@@H](Oc1cc(C[C@@H]2C[S@@+]([O-])C[C@H](NCc3cnn(CC(C)(C)C)c3)[C@H]2O)cc(F)c1N)C(F)(F)F : logP beneath 4, strictly?
fulfilled

Item COC[C@@H](Oc1cc(C[C@@H]2C[S@@+]([O-])C[C@H](NCc3cc(CC(C)(C)C)on3)[C@H]2O)cc(F)c1N)C(F)(F)F : logP beneath 4, strictly?
fulfilled

Item CC(C)(C)c1cccc(CN[C@H]2C[S@+]([O-])C[C@@H](Cc3cc(F)c(N)c(O[C@H](CO)C(F)(F)F)c3)[C@@H]2O)c1 : logP beneath 4, strictly?
fulfilled

Item COC[C@@H](Oc1cc(C[C@@H]2C[S@@+]([O-])C[C@H](NCc3cccc(C(C)(C)CO)c3)[C@H]2O)cc(F)c1N)C(F)(F)F : logP beneath 4, strictly?
fulfilled

----------
assay: Clearance in human liver microsomes; type: ADME, Microsome; conditions: read-out: CLH
measuredProperty: microsomal CLint (µL/min/mg)
Supply the numeric figure in µL/min/mg, leaving out any unit text.

For the molecule COC[C@@H](Oc1cc(C[C@@H]2C[S+]([O-])C[C@H](N)[C@H]2O)cc(F)c1N)C(F)(F)F (some centres not stated) , report microsomal CLint.
190

For the molecule COC[C@@H](Oc1cc(C[C@@H]2C[S@@+]([O-])C[C@H](NCc3cc(C(C)(C)C)ccc3F)[C@H]2O)cc(F)c1N)C(F)(F)F , report microsomal CLint.
400

For the molecule COC[C@@H](Oc1cc(C[C@@H]2C[S@@+]([O-])C[C@H](NCc3cnn(CC(C)(C)C)c3)[C@H]2O)cc(F)c1N)C(F)(F)F , report microsomal CLint.
140

For the molecule COC[C@@H](Oc1cc(C[C@@H]2C[S@@+]([O-])C[C@H](NCc3cc(C(C)(C)C)ccn3)[C@H]2O)cc(F)c1N)C(F)(F)F , report microsomal CLint.
140

For the molecule COC[C@@H](Oc1cc(C[C@@H]2C[S@@+]([O-])C[C@H](NCc3cc(CC(C)(C)C)on3)[C@H]2O)cc(F)c1N)C(F)(F)F , report microsomal CLint.
580

For the molecule [2H]C([2H])(N[C@H]1C[S@+]([O-])C[C@@H](Cc2cc(F)c(N)c(O[C@H](COC)C(F)(F)F)c2)[C@@H]1O)c1cccc(C(C)C)c1 , report microsomal CLint.
600

For the molecule COC[C@@H](Oc1cc(C[C@@H]2C[S@@+]([O-])C[C@H](NCc3cccc(OC(C)C)c3)[C@H]2O)cc(F)c1N)C(F)(F)F , report microsomal CLint.
280

Reference for the values: ChEMBL document CHEMBL2424550
